Where these numbers come from: ChEMBL document CHEMBL4393715

- experimentSummary: Tmax in BALB/c mouse at 20 mg/kg, po and measured up to 24 hrs by LC-MS/MS analysis
- Format: ADME, organism-based
- testConditions: in vivo
Listed next: entries and their corresponding Tmax.
Kindly answer with a numeric value in min, unit omitted.

Example entries begin here.
molecule | metricName | experimentalResult
O=C1CCC(N2Cc3c(SCc4ccc(Cl)cc4)cccc3C2=O)C(=O)N1 (centres undefined) | Tmax | 49.8
O=C1CC[C@H](N2Cc3c(OCc4ccc(CN5CCOCC5)cc4)cccc3C2=O)C(=O)N1 [IBERDOMIDE] | Tmax | 8.4
O=C1CCC(N2Cc3c(SCc4ccc(CN5CCOCC5)cc4)cccc3C2=O)C(=O)N1 (centres undefined) | Tmax | 8.4

We now examine a further molecule.
Given item O=C1CCC(N2Cc3c(SCc4ccc(C(=O)N5CCCCC5)cc4)cccc3C2=O)C(=O)N1 (centres undefined) , the value recorded as its Tmax is 30

====

In this section, each of the molecules is paired with its reported AUC(0-inf).
- experimentSummary: AUC (infinity) in BALB/c mouse at 20 mg/kg, po and measured up to 24 hrs by LC-MS/MS analysis
- Format: ADME, organism-based
- Parameters: dose 20 mg/kg, route oral, time infinity
- testConditions: in vivo
Respond with the bare value in ng·h/mL.

Some solved cases for reference:
molecule | AUC(0-inf), ng·h/mL
O=C1CC[C@H](N2Cc3c(OCc4ccc(CN5CCOCC5)cc4)cccc3C2=O)C(=O)N1 [IBERDOMIDE] | 1810
O=C1CCC(N2Cc3c(SCc4ccc(Cl)cc4)cccc3C2=O)C(=O)N1 (centres undefined) | 755

Entry O=C1CCC(N2Cc3c(SCc4ccc(C(=O)N5CCCCC5)cc4)cccc3C2=O)C(=O)N1 (centres undefined) ; AUC(0-inf) = 34.1

// recorded AUC(0-inf) for O=C1CCC(N2Cc3c(SCc4ccc(CN5CCOCC5)cc4)cccc3C2=O)C(=O)N1 (centres undefined) : 288

====

In this section we review reported MRT inf values for a set of compounds.
- experimentSummary: MRT (infinity) in BALB/c mouse at 5 mg/kg, iv and measured up to 24 hrs by LC-MS/MS analysis
- Type: ADME, organism-based
- testConditions: in vivo
The answer is to be given in min; state only the numeric part.

Example entries begin here.
compound | unitText | MRT inf
O=C1CC[C@H](N2Cc3c(OCc4ccc(CN5CCOCC5)cc4)cccc3C2=O)C(=O)N1 [IBERDOMIDE] | min | 43.8
O=C1CCC(N2Cc3c(SCc4ccc(CN5CCOCC5)cc4)cccc3C2=O)C(=O)N1 (centres undefined) | min | 22.2
O=C1CCC(N2Cc3c(SCc4ccc(C(=O)N5CCCCC5)cc4)cccc3C2=O)C(=O)N1 (centres undefined) | min | 27

Could you now consider this next compound?
Memo: O=C1CCC(N2Cc3c(SCc4ccc(Cl)cc4)cccc3C2=O)C(=O)N1 (centres undefined) , reported MRT inf: 56.4

====

- experimentSummary: Oral bioavailability in BALB/c mouse at 20 mg/kg and measured up to 24 hrs by LC-MS/MS analysis
- Assay type: ADME, organism-based
- testConditions: in vivo
Form field: bioavailability (one value per entry).
Reply numerically in %, unit not repeated.

Record excerpt, results attached:
molecule | unitText | bioavailability
O=C1CCC(N2Cc3c(SCc4ccc(C(=O)N5CCCCC5)cc4)cccc3C2=O)C(=O)N1 (centres undefined) | % | 2.9
O=C1CCC(N2Cc3c(SCc4ccc(Cl)cc4)cccc3C2=O)C(=O)N1 (centres undefined) | % | 39.2
O=C1CCC(N2Cc3c(SCc4ccc(CN5CCOCC5)cc4)cccc3C2=O)C(=O)N1 (centres undefined) | % | 17.6

Now consider a different molecule.
// field: bioavailability; key: O=C1CC[C@H](N2Cc3c(OCc4ccc(CN5CCOCC5)cc4)cccc3C2=O)C(=O)N1 [IBERDOMIDE] ; value = 22.8

====

- experimentSummary: Cmax in BALB/c mouse at 20 mg/kg, po and measured up to 24 hrs by LC-MS/MS analysis
- Format: ADME, organism-based
- Set-up: dose 20 mg/kg, route oral
- testConditions: in vivo
metricName: Cmax (µg/mL)
# unit: µg/mL | format: bare number

Sample records with Cmax:
molecule | Cmax [µg/mL]
O=C1CCC(N2Cc3c(SCc4ccc(Cl)cc4)cccc3C2=O)C(=O)N1 (centres undefined) | 0.283
O=C1CC[C@H](N2Cc3c(OCc4ccc(CN5CCOCC5)cc4)cccc3C2=O)C(=O)N1 [IBERDOMIDE] | 2.06
O=C1CCC(N2Cc3c(SCc4ccc(CN5CCOCC5)cc4)cccc3C2=O)C(=O)N1 (centres undefined) | 0.496

Record O=C1CCC(N2Cc3c(SCc4ccc(C(=O)N5CCCCC5)cc4)cccc3C2=O)C(=O)N1 (centres undefined) , field Cmax: 0.0167

====

- experimentSummary: Volume of distribution at steady state in BALB/c mouse at 5 mg/kg, iv and measured up to 24 hrs by LC-MS/MS analysis
- Format: ADME, organism-based
- testConditions: in vivo, read-out: Vdss
metricName: Vd (L/kg)
Express your answer in L/kg, writing the number without its unit.

The following compounds have reported results that may help.
compound | metricName | experimentalResult
O=C1CCC(N2Cc3c(SCc4ccc(CN5CCOCC5)cc4)cccc3C2=O)C(=O)N1 (centres undefined) | Vd | 4.69
O=C1CCC(N2Cc3c(SCc4ccc(C(=O)N5CCCCC5)cc4)cccc3C2=O)C(=O)N1 (centres undefined) | Vd | 5.31
O=C1CCC(N2Cc3c(SCc4ccc(Cl)cc4)cccc3C2=O)C(=O)N1 (centres undefined) | Vd | 11.1

Let us examine a further case.
Query O=C1CC[C@H](N2Cc3c(OCc4ccc(CN5CCOCC5)cc4)cccc3C2=O)C(=O)N1 [IBERDOMIDE] yields Vd of 1.9

====

List of AUC(0-inf) values.
- experimentSummary: AUC (infinity) in BALB/c mouse at 5 mg/kg, iv and measured up to 24 hrs by LC-MS/MS analysis
- Format: ADME, organism-based
- Set-up: dose 5 mg/kg, route intravenous, time infinity
- testConditions: in vivo
The answer is to be given in ng·h/mL; state only the numeric part.

Example entries begin here.
compound | AUC(0-inf), ng·h/mL
O=C1CCC(N2Cc3c(SCc4ccc(CN5CCOCC5)cc4)cccc3C2=O)C(=O)N1 (centres undefined) | 397
O=C1CCC(N2Cc3c(SCc4ccc(Cl)cc4)cccc3C2=O)C(=O)N1 (centres undefined) | 428
O=C1CCC(N2Cc3c(SCc4ccc(C(=O)N5CCCCC5)cc4)cccc3C2=O)C(=O)N1 (centres undefined) | 424

Now examine the next entry.
Recorded AUC(0-inf) (compound O=C1CC[C@H](N2Cc3c(OCc4ccc(CN5CCOCC5)cc4)cccc3C2=O)C(=O)N1 [IBERDOMIDE] ): 1940

====

- experimentSummary: Clearance in BALB/c mouse at 5 mg/kg, iv and measured up to 24 hrs by LC-MS/MS analysis
- Format: ADME, organism-based
- testConditions: in vivo
metricName: clearance

Record excerpt, results attached:
compound | experimentalResult
O=C1CC[C@H](N2Cc3c(OCc4ccc(CN5CCOCC5)cc4)cccc3C2=O)C(=O)N1 [IBERDOMIDE] | 43.5 mL/min/kg
O=C1CCC(N2Cc3c(SCc4ccc(C(=O)N5CCCCC5)cc4)cccc3C2=O)C(=O)N1 (centres undefined) | 197 mL/min/kg
O=C1CCC(N2Cc3c(SCc4ccc(CN5CCOCC5)cc4)cccc3C2=O)C(=O)N1 (centres undefined) | 210 mL/min/kg

Moving on to another compound below.
Entry O=C1CCC(N2Cc3c(SCc4ccc(Cl)cc4)cccc3C2=O)C(=O)N1 (centres undefined) — recorded clearance = 196 mL/min/kg

====

- experimentSummary: Terminal elimination half life in BALB/c mouse at 20 mg/kg, po and measured up to 24 hrs by LC-MS/MS analysis
- Assay type: ADME, organism-based
- testConditions: in vivo, read-out: LambdaZ (converted)
# half-life per record follows
Only the number, expressed in h, is required.

molecule | unitText | half-life
O=C1CCC(N2Cc3c(SCc4ccc(C(=O)N5CCCCC5)cc4)cccc3C2=O)C(=O)N1 (centres undefined) | h | 1.41
O=C1CCC(N2Cc3c(SCc4ccc(CN5CCOCC5)cc4)cccc3C2=O)C(=O)N1 (centres undefined) | h | 1.43
O=C1CC[C@H](N2Cc3c(OCc4ccc(CN5CCOCC5)cc4)cccc3C2=O)C(=O)N1 [IBERDOMIDE] | h | 0.9

Now for another entry.
Item: O=C1CCC(N2Cc3c(SCc4ccc(Cl)cc4)cccc3C2=O)C(=O)N1 (centres undefined) | half-life: 1.78
